Assay: in vitro
Type: cell-based, human
Conditions: human, hl60 cells, 1.0 μg/ml; read-out: Suppression
ENDPOINT_LABEL: cytotoxicity at 72 h (%)
Answer with a number only, understood to be in %.

Answered examples (3):
Problem: So what's the measured cytotoxicity at 72 h for this one? CCCCCCC(O)CCCCCCCCCC1OC(=O)C(N)(CO)C1O (stereo not shown)
Solution: 20.5

Problem: So what's the measured cytotoxicity at 72 h for this one? CCCCCCC(O)CCCCCCCCCC(O)C(O)C(N)(CO)C(=O)O (stereo not shown)
Solution: 16.7

Problem: So what's the measured cytotoxicity at 72 h for this one? CCCCCCC(O)CCCCCC/C=C/CC(O)C(O)C(N)(CO)C(=O)O (stereo not shown)
Solution: 21

Continuing:
Problem: So what's the measured cytotoxicity at 72 h for this one? CCCCCCC(=O)CCCCCC/C=C/CC(O)C(O)C(N)(CO)C(=O)O (stereo not shown)
Solution: 38.2
